system: Trypanosoma cruzi; experiment: Trypanosoma cruzi phosphomannomutase and mannose-1-phosphate guanylyltransferase assay; format: functional; parameters: scale not given: direction of the effect not stated beside the values; conditions: 10 µM
measured endpoint: Percent Effect (%)
Quick note: give the figure in %, leave out the unit.

Report Percent Effect for Cc1nn(C)c(C)c1C1CCCN1Cc1nc(C2CC2)no1 (configuration not stated) please.
6.22

---
Report Percent Effect for CC(Cn1cccn1)NC(=O)CCc1ccc(S(N)(=O)=O)cc1 (configuration not stated) please.
6.37

Report Percent Effect for "Cc1cc(C(=O)N2CCc3ncc(CN4CCOCC4)n3CC2)no1" please.
0.0978

Report Percent Effect for "O=C(O)c1cc(-c2cccnc2)cc(S(=O)(=O)N2CCCCCC2)c1" please.
-3.4

Report Percent Effect for "Cc1nnc(CN2CCN(CCOc3ccccc3C#N)CC2)n1C" please.
5.7

Report Percent Effect for "Cc1ccccc1CN1CCN(Cc2nccn2C)CC1" please.
-3.3

Report Percent Effect for CN(CC(=O)N1CCC(C(O)c2ccccc2)CC1)c1cnccn1 (configuration not stated) please.
-0.279

Report Percent Effect for "CC(C)CN1CCN(C)C2(CCN(Cc3ccsc3)CC2)C1=O" please.
0.188
